organism: Mus musculus; experiment: Antagonistic activity against tetrabenazine-induced ptosis in mice.; type: functional
ASSAY ENDPOINT: ED50

Example entries begin here.
CN(C)C1CC(c2ccc(F)cc2)c2ccc(F)cc21 (stereo not given)
>147 µmol/kg
CCCN(CCC)C1CC(c2ccc(Cl)c(Cl)c2)c2ccccc21.Cl (stereo in doubt; 90)
>100 µmol/kg
CN(C)C1CC(c2ccccc2)c2ccccc21.Cl (stereo in doubt; 59)
>143 µmol/kg
Clc1ccc(C2CC(NCCc3ccccc3)c3ccccc32)cc1Cl (stereo not given)
>85 µmol/kg

Inquiry: Value lookup for ED50; key = CCN(CC)C1CC(c2ccc(Cl)c(Cl)c2)c2ccccc21.Cl (stereo in doubt; 86)
Reply text: >108 µmol/kg

* * *

biological target: Sodium-dependent dopamine transporter (Rattus norvegicus, UniProt P23977); experiment: Inhibition of dopamine uptake in rat synaptosomal fraction
Sequence (P23977 whole entry): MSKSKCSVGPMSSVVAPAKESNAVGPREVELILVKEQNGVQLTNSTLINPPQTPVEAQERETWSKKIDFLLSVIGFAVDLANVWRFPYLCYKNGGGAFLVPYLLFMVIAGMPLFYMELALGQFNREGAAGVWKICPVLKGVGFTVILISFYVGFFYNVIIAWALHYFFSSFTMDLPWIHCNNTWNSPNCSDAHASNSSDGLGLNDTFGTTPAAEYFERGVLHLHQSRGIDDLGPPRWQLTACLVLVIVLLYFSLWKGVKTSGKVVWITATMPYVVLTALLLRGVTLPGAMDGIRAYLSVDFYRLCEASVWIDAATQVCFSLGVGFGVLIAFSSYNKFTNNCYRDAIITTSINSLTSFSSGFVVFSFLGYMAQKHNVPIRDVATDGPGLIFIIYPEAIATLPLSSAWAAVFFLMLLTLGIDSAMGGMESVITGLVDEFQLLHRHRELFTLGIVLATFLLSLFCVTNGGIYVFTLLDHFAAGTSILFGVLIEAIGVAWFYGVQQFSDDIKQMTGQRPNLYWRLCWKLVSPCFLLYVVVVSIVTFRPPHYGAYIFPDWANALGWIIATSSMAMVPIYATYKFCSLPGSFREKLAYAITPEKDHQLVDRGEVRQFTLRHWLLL
Provide the reported IC50 of each item.
Answers are plain numbers, in µM.

CN(C)C1CC(c2ccc(Cl)c(Cl)c2)c2ccc(O)cc21 (stereo not given)
0.0079

I'm hoping you can list IC50 for every molecule here, please.
1. CN(C)C1CC(c2ccc(Cl)c(Cl)c2)c2ccc(F)cc21 (stereo in doubt; 51)
2. CNC1CC(c2cccc(Cl)c2)c2ccccc21.Cl (stereo in doubt; 39)
3. COc1ccc2c(c1)C(N(C)C)CC2c1ccc(Cl)c(Cl)c1 (stereo in doubt; 53)
4. COc1ccc2c(c1)C(N(C)C)CC2c1ccc(Cl)c(Cl)c1 (stereo in doubt; 79)

Reply text:
1: 0.012; 2: 0.014; 3: 0.01; 4: 0.015

* * *

species: Mus musculus; experiment: Antagonistic activity against tetrabenazine-induced ptosis in mice.; assay type: functional
ASSAY ENDPOINT: ED50 (µmol/kg)
Numbers only, in µmol/kg.

I'm hoping you can list ED50 for every compound here, please.
1. CN(C)C1CC(c2ccc(Br)cc2)c2ccccc21 (stereo in doubt; 37)
2. CNC1CC(c2ccc(Br)cc2)c2ccccc21.Cl (stereo in doubt; 64)
3. CN(C)C1CC(c2ccc(F)cc2)c2ccccc21.Cl (stereo in doubt; 33)
4. CNC1CC(c2ccc(Cl)c(Cl)c2)c2ccc(F)cc21.Cl (stereo in doubt; 76)

Reply text:
1: 9.8; 2: 29; 3: 7.8; 4: 15

* * *

Provide the reported pIC50 of each item.
molecular target: Norepinephrine transporter (Rattus norvegicus, UniProt Q9WTR4); assay: Inhibition of noradrenaline uptake in rat synaptosomal fraction
Sequence (Q9WTR4 whole entry): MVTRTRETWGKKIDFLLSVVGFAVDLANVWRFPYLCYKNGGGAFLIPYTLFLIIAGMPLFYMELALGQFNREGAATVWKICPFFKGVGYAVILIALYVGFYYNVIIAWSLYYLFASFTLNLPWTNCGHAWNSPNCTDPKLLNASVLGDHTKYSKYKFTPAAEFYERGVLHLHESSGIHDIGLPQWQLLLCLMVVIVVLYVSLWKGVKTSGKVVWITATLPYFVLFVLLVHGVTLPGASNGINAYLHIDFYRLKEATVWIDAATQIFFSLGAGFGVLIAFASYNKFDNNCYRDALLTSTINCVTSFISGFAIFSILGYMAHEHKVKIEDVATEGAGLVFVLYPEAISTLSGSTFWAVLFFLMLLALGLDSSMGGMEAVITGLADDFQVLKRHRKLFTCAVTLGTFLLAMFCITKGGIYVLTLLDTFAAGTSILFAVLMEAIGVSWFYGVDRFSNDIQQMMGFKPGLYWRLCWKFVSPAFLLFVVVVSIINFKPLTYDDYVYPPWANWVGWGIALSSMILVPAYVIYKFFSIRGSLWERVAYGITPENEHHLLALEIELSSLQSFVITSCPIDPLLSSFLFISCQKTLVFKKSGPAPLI
Numbers only, as −log10 of the molar value.

Example entries begin here.
CN(C)C1CC(c2ccc(Cl)c(Cl)c2)c2ccc(O)cc21 (stereo not drawn)
7.80
CNC1CC(c2ccc(Cl)c(Cl)c2)c2ccc(F)cc21.Cl (stereo in doubt; 76)
7.85
CN(C)C1CC(c2ccc(Cl)cc2)c2ccccc21 (stereo in doubt; 35)
7.64

I'm hoping you can list pIC50 for every compound here, please.
1. CNCCCC1(c2ccccc2)OC(C)(C)c2ccccc21 (stereo not drawn)
2. CN(C)C1CC(c2ccc(Cl)cc2Cl)c2ccccc21.Cl (stereo in doubt; 49)

Reply text:
[8.54, 7.05]

I'm hoping you can list pIC50 for every compound here, please.
1. COc1ccc2c(c1)C(N(C)C)CC2c1ccc(Cl)c(Cl)c1 (stereo in doubt; 53)
2. CNC1CC(c2cccc(Cl)c2)c2ccccc21.Cl (stereo in doubt; 66)
3. CN(C)C1CC(c2cccc(Cl)c2)c2ccccc21.Cl (stereo in doubt; 67)
4. CN(C)C1CC(c2ccc(Br)cc2)c2ccccc21 (stereo in doubt; 65)

Reply text:
7.80
7.72
9.11
8.37

* * *

species: Mus musculus; test: Antagonistic activity against tetrabenazine-induced ptosis in mice.; type: functional
ASSAY ENDPOINT: ED50 (µmol/kg)
Give bare numbers, in µmol/kg.

Cl.Clc1ccc(C2CC(NCCc3ccccc3)c3ccccc32)cc1Cl (stereo not drawn)
33

Now let's try a different one.
Inquiry: Value lookup for ED50; key = CNC1CC(c2ccc(F)c(Cl)c2)c2ccccc21.Cl (stereo in doubt; 70)
Reply text: 32

* * *

species: Mus musculus; experiment: Antagonistic activity against 5-HTP induced potentiation in mice; type: functional
Provide the reported ED50 of each item.

Example entries begin here.
CN1CCN(C2CC(c3ccc(Cl)c(Cl)c3)c3ccccc32)CC1 (single isomer, unassigned; (+)-101)
> 91 µmol/kg
CN1Cc2c(N)cccc2C(c2ccccc2)C1 (stereo not given)
> 56 µmol/kg
Clc1ccc(C2CC(N3CCCCC3)c3ccccc32)cc1Cl (stereo in doubt; 99)
> 209 µmol/kg

I'm hoping you can list ED50 for every compound here, please.
1. CCCNC1CC(c2ccc(Cl)c(Cl)c2)c2ccccc21 (stereo in doubt; 88)
2. CN1CCN(C2CC(c3ccc(Cl)c(Cl)c3)c3ccccc32)CC1 (single isomer, unassigned; (-))
3. CCCN(CCC)C1CC(c2ccc(Cl)c(Cl)c2)c2ccccc21 (stereo in doubt; 89)
4. CN(C)C1CC(c2ccccc2)c2ccccc21 (stereo in doubt; 31)
5. CN(C)C1CC(c2ccccc2)c2ccccc21 (stereo in doubt; 59)
6. CNCCCC1(c2ccccc2)SC(C)(C)c2ccccc21 (stereo not given)
7. CNC1CC(c2ccc(Cl)cc2Cl)c2ccccc21 (stereo in doubt; 48)
8. Clc1ccc(C2CC(N3CCCC3)c3ccccc32)cc1Cl (stereo in doubt; 97)

Reply text:
1. > 112 µmol/kg
2. > 92 µmol/kg
3. > 100 µmol/kg
4. > 35 µmol/kg
5. > 36 µmol/kg
6. > 115 µmol/kg
7. 67 µmol/kg
8. > 108 µmol/kg

* * *

molecular target: Sodium-dependent serotonin transporter (Rattus norvegicus, UniProt P31652); experiment: Inhibition of 5-HT uptake in rat synaptosomal fraction
Sequence (P31652 whole entry): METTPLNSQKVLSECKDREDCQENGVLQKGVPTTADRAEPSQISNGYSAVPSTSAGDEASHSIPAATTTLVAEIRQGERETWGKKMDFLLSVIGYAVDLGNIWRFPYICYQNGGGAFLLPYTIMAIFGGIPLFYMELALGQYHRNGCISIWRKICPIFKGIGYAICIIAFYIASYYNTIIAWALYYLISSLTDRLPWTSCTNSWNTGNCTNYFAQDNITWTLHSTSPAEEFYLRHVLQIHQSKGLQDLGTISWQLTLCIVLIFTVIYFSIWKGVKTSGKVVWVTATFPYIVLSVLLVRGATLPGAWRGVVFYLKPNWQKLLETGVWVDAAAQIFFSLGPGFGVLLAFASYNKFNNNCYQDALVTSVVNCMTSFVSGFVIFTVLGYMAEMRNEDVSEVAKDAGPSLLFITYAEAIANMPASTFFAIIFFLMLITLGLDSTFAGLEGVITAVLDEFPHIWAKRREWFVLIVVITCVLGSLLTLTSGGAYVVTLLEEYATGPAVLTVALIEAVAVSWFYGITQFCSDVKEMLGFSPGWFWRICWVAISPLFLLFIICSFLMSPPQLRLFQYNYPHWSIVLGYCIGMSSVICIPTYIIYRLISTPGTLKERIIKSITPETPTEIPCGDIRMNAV
Provide the reported pIC50 of each item.
Answers are plain numbers, as −log10 of the molar value.

Example entries begin here.
CNC1CC(c2cccc(Cl)c2)c2ccccc21.Cl (stereo in doubt; 39)
7.39
COc1ccc2c(c1)C(N(C)C)CC2c1ccc(Cl)c(Cl)c1 (stereo in doubt; 79)
8.70
CN(C)C1CC(c2ccc(Cl)c(Cl)c2)c2ccc(F)cc21 (stereo in doubt; 51)
8.96
CN(C)C1CC(c2ccc(F)cc2)c2ccccc21.Cl (stereo in doubt; 33)
7.48
Clc1ccc(C2CC(N3CCCC3)c3ccccc32)cc1Cl (stereo in doubt; 98)
8.51
CNC1CC(c2ccc(Cl)cc2Cl)c2ccccc21.Cl (stereo in doubt; 74)
7.68

I'm hoping you can list pIC50 for every compound here, please.
1. CN(C)C1CC(c2ccc(Cl)c(Cl)c2)c2ccc(F)cc21 (stereo in doubt; 77)
2. CNCCCC1(c2ccccc2)OC(C)(C)c2ccccc21 (centres undefined)
3. CNC1CC(c2ccc(F)c(F)c2)c2ccccc21.Cl (stereo in doubt; 41)
4. CNC1CC(c2ccc(Cl)cc2Cl)c2ccccc21.Cl (stereo in doubt; 48)

Reply text:
1. 8.60
2. 5.85
3. 7.31
4. 9.04

* * *

target: Sodium-dependent dopamine transporter (Rattus norvegicus, UniProt P23977); assay: Inhibition of dopamine uptake in rat synaptosomal fraction
Provide the reported IC50 of each item.
One number for each entry, in nM.

CN1CCN(C2CC(c3ccc(Cl)c(Cl)c3)c3ccccc32)CC1 (stereo in doubt; 101)
11
CCCN(CCC)C1CC(c2ccc(Cl)c(Cl)c2)c2ccccc21.Cl (stereo in doubt; 89)
150

I'm hoping you can list IC50 for every compound here, please.
1. CNC1CC(c2ccc(Br)cc2)c2ccccc21.Cl (stereo in doubt; 64)
2. CN(C)C1CC(c2ccc(Cl)cc2)c2ccccc21 (stereo in doubt; 35)
3. CN(C)C1CC(c2ccc(Cl)c(Cl)c2)c2ccc(F)cc21 (stereo in doubt; 77)
4. CNCCCC1(c2ccccc2)SC(C)(C)c2ccccc21 (configuration not stated)

Reply text:
67
140
31
9300

I'm hoping you can list IC50 for every compound here, please.
1. Clc1ccc(C2CC(N3CCCCC3)c3ccccc32)cc1Cl (stereo in doubt; 99)
2. CCCNC1CC(c2ccc(Cl)c(Cl)c2)c2ccccc21.Cl (stereo in doubt; 87)
3. CN1CCN(C2CC(c3ccc(Cl)c(Cl)c3)c3ccccc32)CC1 (stereo in doubt; (-)-102)
4. CCCN(CCC)C1CC(c2ccc(Cl)c(Cl)c2)c2ccccc21.Cl (stereo in doubt; 90)
5. CNC1CC(c2ccccc2)c2ccccc21 (configuration not stated)
6. CN(C)C1CC(c2ccc(F)c(F)c2)c2ccccc21 (configuration not stated)

Reply text:
1. 720
2. 6.6
3. 2.3
4. 180
5. 1400
6. 250

* * *

target: Norepinephrine transporter (Rattus norvegicus); assay: Inhibition of noradrenaline uptake in rat synaptosomal fraction
ASSAY ENDPOINT: IC50 (µM)
Give bare numbers, in µM.

Example entries begin here.
CNC1CC(c2ccc(F)c(F)c2)c2ccccc21.Cl (stereo in doubt; 68)
0.033
CN(C)C1CC(c2ccc(Cl)cc2)c2ccccc21 (stereo in doubt; 63)
0.0044
Clc1ccc(C2CC(N3CCCC3)c3ccccc32)cc1Cl (stereo in doubt; 98)
0.027

Now let's try a different one.
Inquiry: Value lookup for IC50; key = COc1ccc2c(c1)C(N(C)C)CC2c1ccc(Cl)c(Cl)c1 (stereo in doubt; 79)
Reply text: 0.003
